# measured target: T1, HLA-A2.1 on T2 cells (human)
# T1 construct: Peptide-receptive HLA-A2.1 on T2 cells; also called HLA-A2.1 MHC class I molecules
# test method notes: peptide binding to HLA-A2.1+ T2 cells, complex stability; Brefeldin A 4 hr (T2 alone 187)
quantity kind: binding score (HLA-A2.1 on T2 cells)

Reference set (5 entries):
YIISGDSWV (Modified CD33 peptide) [YIISGDSWV (SEQ ID NO: 14)]
208
YIISGISPV (Modified CD33 peptide) [YIISGISPV (SEQ ID NO: 6)]
839
YIILGDSPV (Modified CD33 peptide) [YIILGDSPV (SEQ ID NO: 12)]
205
YIISGDSPV (Modified CD33 peptide) [YIISGDSPV (SEQ ID NO: 3)]
380
YIISGDSPL (Modified CD33 peptide) [YIISGDSPL (SEQ ID NO: 15)]
217

A = YIISGDLPV (Modified CD33 peptide) [YIISGDLPV (SEQ ID NO: 13)]
B = YIIIGDSPV (Modified CD33 peptide) [YIIIGDSPV (SEQ ID NO: 11)]
C = YLISGDSPV (Modified CD33 peptide) [YLISGDSPV (SEQ ID NO: 7)]
Asked: Number of binders to sort: 3. Sort criterion: binding score (HLA-A2.1 on T2 cells), ascending. Please list each label once, in the requested order.
Given back: B, A, C
(B: 208, A: 307, C: 745)
